test: Human HepG2 cell viability assay in 384 well format; assay type: toxicity, cell-based; set-up: dose 125 nL, time 70.5 hour; concentration not given beside the values; details: HepG2 cells, read-out: Inhibition
observable: cytotoxicity at 70.5 h
Remember to follow the number with its unit.

Input: Bench note: what cytotoxicity at 70.5 h did Cc1cccc(C(=O)N2CCCC(c3noc(C)n3)C2)n1 (stereo unspecified) show?
Output: -1.99%

Input: What about CCS(=O)(=O)N1CCOC2(CCCN(c3ccc(C)nn3)C2)C1 (stereo unspecified) ?
Output: -11.8%

Input: What about Cc1nc(C(C)(C)NCc2ncc(C3CC3)o2)sc1C ?
Output: 2.05%

Input: What about COCCO[C@@H]1CCN(C(=O)c2occc2C)[C@H]1Cc1cnn(C)c1 ?
Output: -90.5%

Input: What about O=C1CCC2(CCCN(CCc3ccccc3)C2)N1Cc1cccnc1 (stereo unspecified) ?
Output: -25%

Input: What about O=C(C[C@@H]1COC[C@H]2CN(Cc3ccc(F)cc3)C[C@@H]12)N1CCOCC1 ?
Output: 21.2%

Input: What about N#Cc1cccc(C(=O)N2CCC3(CCC(=O)N(C4CC4)C3)CC2)c1 ?
Output: 6.81%

Input: What about CN(C)C(=O)COC[C@]12COC[C@H]1CN(C1CCCC1)C2 ?
Output: -8.08%

Input: What about CC(NC(N)=O)C(=O)NCc1ccnc(Oc2ccc(F)cc2)c1 (stereo unspecified) ?
Output: -0.577%

Input: What about CCCNC(=O)c1ccc2c(c1)C(=O)N(CC(C)C)C2=O ?
Output: -1.77%

Input: What about CCN(c1ccc(C(=O)N2CCCC2c2cnn(C)c2)cn1)C(C)C (stereo unspecified) ?
Output: 16.2%

====

assay: Human HepG2 cell viability assay in 384 well format; format: toxicity, cell-based; set-up: dose 125 nL, time 70.5 hour; concentration not given beside the values; settings: HepG2 cells, read-out: Inhibition
Record form. Attribute: cytotoxicity at 70.5 h. Fill in for each entry.
Give your result in % as a bare value.

Input: Bench note: what cytotoxicity at 70.5 h did Cc1nc(CN2C[C@@H]3CN(C(=O)c4ccco4)C[C@@H]3C2=O)cs1 show?
Output: -3.99

Input: What about Cc1nnc(N2C[C@H](C(=O)NCC3CC3)[C@@H]3CCO[C@@H]3C2)s1 ?
Output: -4

Input: What about Cc1cccc(OCCC(=O)N2CCN(CC(=O)NC3CC3)CC2)c1C ?
Output: -11.9

Input: What about Cc1ccc(S(N)(=O)=O)cc1C(=O)NC1CCCC1 ?
Output: -1.13

Input: What about CCN1CC2(CC1=O)CN(C(=O)N(C)C)CCN(S(C)(=O)=O)C2 (stereo unspecified) ?
Output: -10.5

Input: What about CNC(=O)Nc1cc(-c2ccccc2C)nn1CCO ?
Output: 21.1

Input: What about O=C(Nc1ccccc1)[C@H]1C[C@@H]2CN(S(=O)(=O)C3CC3)C[C@H]1O2 ?
Output: -14.4

Input: What about CCc1n[nH]c(C2CN(C(=O)CCOCC(F)(F)F)CCO2)n1 (stereo unspecified) ?
Output: -12.9

Input: What about Cc1cc(CN(C)C(=O)c2ccc(Cl)c(S(C)(=O)=O)c2)no1 ?
Output: 13.8

Input: What about CC(=O)N1CCN(c2ccccc2CNc2ccc(C)cn2)CC1 ?
Output: -3.33

Input: What about CC(=O)N1N=C(c2ccco2)OC1C(=O)NCCc1ccc(O)cc1 (stereo unspecified) ?
Output: -2.51

Input: What about Cc1cc(NC(=O)CCN2CCn3c(nnc3C3CC3)C2)no1 ?
Output: -11.7

Input: What about CCc1nc(-c2ccc(NC(=O)N3CCC4(CC3)OCCO4)cc2)no1 ?
Output: 3.68

Input: What about CC(C)[C@@H]1CN(C(=O)CN(C)Cc2ccccc2)C[C@H]1C(=O)O ?
Output: -6.53

Input: What about CCC(=O)N1CCC(c2nnc(Cn3cncn3)n2C2CC2)CC1 ?
Output: 6.31

Input: What about Cc1cnn(CC(=O)N2CCC3(CCC(=O)N(C4CCCC4)C3)CC2)c1 ?
Output: -2.24

Input: What about CC(=O)N1CCCC(c2ccc(C(N)=O)cn2)C1 (stereo unspecified) ?
Output: -8.88

Input: What about Cc1n[nH]c(C)c1CC(=O)N1CC[C@@](C)(O)[C@H](Oc2ccccc2)C1 ?
Output: -6.16

Input: What about CCCS(=O)(=O)N1CCC2(CCC(=O)N(Cc3ccccc3)C2)CC1 ?
Output: -4.86

Input: What about COc1ccc(CNc2cnn(CC(F)F)c2)cc1 ?
Output: -0.452

Input: What about Cc1ccc(C)c(-n2ccc3nc(N4CCCC4)ncc3c2=O)c1 ?
Output: -7.78

Input: What about COCCN1C[C@H]2[C@@H](C1)N(C(=O)CCc1ccccc1)CC[C@H]2OC ?
Output: -10.6

Input: What about Cc1cc(CN2CCN(C(=O)NCCc3csc(C)n3)CC2)on1 ?
Output: -11.6

Input: What about Cc1cccc(S(=O)(=O)N2Cc3nccn3CC(CN(C)C)C2)c1 (stereo unspecified) ?
Output: -8.23

Input: What about c1ccc2c(c1)nc1n2[C@@H](CNCc2nccs2)COC1 ?
Output: -19.6

Input: What about CC(O)(CCc1ccccc1)CNC(=O)c1ccsc1 (stereo unspecified) ?
Output: -2.72

Input: What about Cn1cc2c(n1)C(CNCc1ccco1)OCC2 (stereo unspecified) ?
Output: 19.8

Input: What about CC(=O)Nc1cccc([C@H]2C[C@@H](NC(C)=O)CCO2)c1 ?
Output: 13.2

Input: What about Cc1cc(CN2CCC(C3CCN(CCc4ccccc4)CC3)C2)[nH]n1 (stereo unspecified) ?
Output: -0.097

Input: What about CCCOC(=O)N1CCCC2(CCN(Cc3cccc(C#N)c3)C2)C1 (stereo unspecified) ?
Output: -6.05

Input: What about CNCCc1nc2cc(Cl)ccc2[nH]1 ?
Output: 16.5

Input: What about Cc1nn(C)c(C)c1C1CCCN1CC(=O)NCc1ccco1 (stereo unspecified) ?
Output: 7.36

Input: What about CCO[C@@H]1CC[C@H]2[C@H]1OCCN2CC1CCOCC1 ?
Output: 38.8

Input: What about NCC1CN(c2nc(-c3cccnc3)nc3c2CCNCC3)CCO1 (stereo unspecified) ?
Output: 26.4

Input: What about CC1CCC(NC(=O)CNC2(c3ccc(Br)cc3)CCOCC2)CC1 (stereo unspecified) ?
Output: 4.23

Input: What about Cc1csc(C2(NC(=O)CCc3ccncc3)CCCC2)n1 ?
Output: -7.21

Input: What about COc1cccn(CC(=O)N2CCCC3(CCOCC3)C2)c1=O ?
Output: -1.15

Input: What about CCC1CN(CC(=O)NCc2ccco2)CCO1 (stereo unspecified) ?
Output: 2.02

Input: What about CC(C)(O)c1cn(C[C@H]2C[C@@H]3CCN2C[C@@H]3C(=O)N2CCOCC2)nn1 ?
Output: -1.36

Input: What about O=C(NCc1ccco1)[C@@H]1COC[C@H]2CN(c3ncc(F)cn3)C[C@H]21 ?
Output: -7.6

Input: What about O=C(CCn1ccc2ncccc2c1=O)N1CCCC1 ?
Output: 0.26

Input: What about Cc1oncc1C(=O)N1CCC2(CCN(Cc3cccnc3)C2=O)C1 (stereo unspecified) ?
Output: -3.48

Input: What about COCc1noc(Cn2c(=O)[nH]c3ccccc32)n1 ?
Output: -10.2

Input: What about CC(C)CCN(C)Cc1nc2c(cnn2C)c(=O)[nH]1 ?
Output: -5.91

Input: What about OC(CN(Cc1ccccc1)Cc1ccncc1)c1ccco1 (stereo unspecified) ?
Output: 26

Input: What about O=C(c1ccncn1)N1CCC[C@]2(C[C@@H](OCC3CC3)CO2)C1 ?
Output: -13.8

====

experiment: Human HepG2 cell viability assay in 384 well format; format: toxicity, cell-based; parameters: dose 125 nL, time 70.5 hour; concentration not given beside the values; settings: HepG2 cells, read-out: Inhibition
observable: cytotoxicity at 70.5 h (%)
Give your result in % as a bare value.

Input: Bench note: what cytotoxicity at 70.5 h did CC(C)OCCC(=O)NCC(O)c1c(Cl)cccc1Cl (centres undefined) show?
Output: -3.94

Input: What about COCCOC(=O)N1CC2=CC(C)(C)COc3ccc(OC)c(c32)C1 ?
Output: -1.64

Input: What about CN(CCO)C1CCN(c2ncc3c(n2)CCN3c2ccccc2)CC1 ?
Output: -3

Input: What about Cc1csc(N2CCN(CC(=O)Nc3cc(C)nn3C)CC2C)n1 (centres undefined) ?
Output: 2.09

Input: What about CN(CCO)Cc1nnc(C2CCN(C(=O)CN3CCCC3)CC2)n1C ?
Output: -0.947

Input: What about COc1ccc(C)cc1S(=O)(=O)N[C@H]1CN(C(C)=O)C[C@@H]1C1CC1 ?
Output: -7.75

Input: What about CNS(=O)(=O)c1cc(C(=O)N(C)Cc2sccc2C)c(C)o1 ?
Output: -5.52

Input: What about NC(=O)C(NC(=O)Cc1cnn(-c2ccccc2)n1)c1ccccc1 (centres undefined) ?
Output: -0.915

Input: What about CN(Cc1cnn(C)c1)Cc1nc(CCc2ccccc2)no1 ?
Output: -4.56

Input: What about CN(Cc1ccncc1)C(=O)c1ccc2c(c1O)OC(C)(C)C2 ?
Output: -5.32

Input: What about CSCC[C@H](NC(C)=O)C(=O)N(C)Cc1ccc(-n2cccn2)cc1 ?
Output: 23.9

Input: What about Clc1snnc1CN1CCCC(Cn2cncn2)C1 (centres undefined) ?
Output: 14.5

Input: What about O=C(NCc1ccccn1)c1cc2n(n1)CCNC2 ?
Output: -3.91

Input: What about Cc1ncncc1C(=O)NCCN1CCC(C)CC1 ?
Output: 5.52

Input: What about COc1ncnc2c1CCN(c1cc(C(F)(F)F)ncn1)CC2 ?
Output: -6.15

Input: What about CCc1ccc(C(=O)NC2CCCN(c3ccn(C)n3)C2=O)o1 (centres undefined) ?
Output: 9.2

Input: What about N#Cc1cccc(NC(=O)C2CCCN2c2nccs2)c1 (centres undefined) ?
Output: -2.24

Input: What about CCOc1ccc(N2CCCN=C2NC(=O)c2cccc(OC)c2)cc1 ?
Output: 2.56

Input: What about CC(C)c1nc(N2CC[C@@H](N(C)CCc3ccccn3)[C@H](O)C2)no1 ?
Output: 13.3

Input: What about Cn1cncc1CNC1CC2(CCN(CC3CC3)CC2)c2ccccc21 (centres undefined) ?
Output: -2.23

Input: What about CCN(c1ccccc1C(=O)O)S(=O)(=O)c1cccc2cccnc12 ?
Output: 1.89

Input: What about CCc1ncc(C(=O)N2CCOCC2c2c(C)n[nH]c2C)s1 (centres undefined) ?
Output: -2.25

Input: What about c1cnc(NCc2cncc3c2CCN(Cc2ccoc2)C3)nc1 ?
Output: -8.36

Input: What about CN(C)C(=O)CN1C[C@@H]2CC[C@H](C1)N(Cc1ccccc1OCCO)C2 ?
Output: -9.08
